Values compiled from paper PMC4022879.

study system: activated coagulation factor XII (FXIIa)
measurement notes: chromogenic enzyme inhibition assay; 1 nM FXIIa, 500 μM S2302, 37 °C, 110 mM Tris-HCl pH 8.0, 250 mM NaCl, 1% BSA; residual activity in triplicate at at least six inhibitor concentrations; Ki from a linear fit of 1/v against inhibitor concentration
endpoint: Ki (nM)

binder	unit annotation	Ki
corn Hageman factor inhibitor (CHFI), control protein from Zea mays seeds (natural protein) SAGTSCVPGWAIPHNPLPSCRWYVTSRTCGIGPRLPWPELKRRCCRELADIPAYCRCTALSILMDGAIPPGPDAQLEGRLEDLPGCPREVQRGFAATLVTEAECNLATIS	nM	1

a: CHFI-12345, recombinant full-size CHFI without any truncations (natural protein) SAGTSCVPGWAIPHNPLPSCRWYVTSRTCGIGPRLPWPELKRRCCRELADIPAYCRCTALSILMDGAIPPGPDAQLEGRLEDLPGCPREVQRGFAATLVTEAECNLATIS
b: CHFI-1245, full-size CHFI with Cys29 substituted by Asp (natural protein) SAGTSCVPGWAIPHNPLPSCRWYVTSRTDGIGPRLPWPELKRRCCRELADIPAYCRCTALSILMDGAIPPGPDAQLEGRLEDLPGCPREVQRGFAATLVTEAECNLATIS
QUERY: For the two items a and b , which reports the higher Ki value? Return value: the label identifying the chosen record.
RESULT: b
(b: 50 nM, a: 1.1 nM)
